The origin of these recorded values is patent US10202340B2.

test: Brain and plasma drug levels after single oral dose in CD-1 mice; assay type: in vivo, mouse; details: mouse, plasma; single 20 mg/kg PO, female CD-1 mice, 1 hr; read-out: Drug level in plasma
MEASUREMENT_LABEL: concentration at 1 h (ng/g)
Response body: numeric value in ng/g, unit text excluded.

**Q:** Please look up its concentration at 1 h: O=C(CC1Cc2ccccc2C1)N[C@H](CN1CCCC1)[C@H](O)c1ccc(OC(F)(F)F)cc1 [Example 7]
**A:** 463

Now examine the next entry.
**Q:** Please look up its concentration at 1 h: O=C(CC1Cc2ccccc2C1)N[C@H](CN1CCCC1)[C@H](O)c1ccc2c(c1)OCCO2 [control]
**A:** 20
